experiment: folding stability dG unfold (combined trypsin and chymotrypsin); higher = more stable
REPORTED ENDPOINT: folding stability dG unfold (kcal/mol)
Numeric only. Scale: kcal/mol

Sample records with folding stability dG unfold:
| BIOSEQUENCE | folding stability dG unfold, kcal/mol |
| --- | --- |
| SKKKIEIEVIDLKTGKTETIEADTLEEALEEIKKNAPPGSTVIVRIKLPDGSVLEITLEIKPEKVTEKEKSA [r9_482_TrROS_Hall] | 1.21 |
| SAGGSAGGMVIKIITNAPSLEEAEEIAKRVAAELRERFGGPDVEIVLDVEVIPLPPVPTEDGKPSAGGSAGG [r6_182_TrMRF] | 1.82 |
| SAGMILPPNTVVTLSTTTTEELPLFTDGSGPRTTTTETVVTVEPVPVNPYPDPAVREKLLAEGKPLELLSAG [r5_624_JUSTAS] | -0.265 |
| SAGGSAKFKLEATPLEDGTLIIPIEIEVTVEKPFPDPNGIPKIKPVKKKFRFLIIKDGDEIKIFLGSAGGSA [r15_883_TrMRF] | 2.31 |

Supply folding stability dG unfold value. Item: SAGGSAGGSAGGGKSITKVYTLPNGGKAVAVYNPETGKVEVYFFKPNGKLLEKKTFKAKSAGGSAGGSAGGS [r10_1044_TrMRF] 2.51

From: the supplement of paper PMC12764529
